Form field: mPTP Rat liver pIC50* (one value per entry).
# Tested on: mPTP
# Test description: mPTP activity (Ca2+ retention) assay in isolated rat liver mitochondria
# Type: biochemical
# Test conditions: isolated rat liver mitochondria; Fluo5N fluorescence at 10 min after CaCl2 (75 μM) bolus; DMSO 0%, 5 μM cyclosporin A 100% inhibition
# print the numeric value only

Solved entries (count: 2):
1. Cn1nc(C(=O)N2CC(c3ccccc3F)C3(CCC3)C2)[nH]c1=O (stereo not shown) : 4.75
2. O=C(c1noc(=O)[nH]1)N1CC(c2ccccc2)C2(CCC2)C1 (stereo not shown) [Example 24] : 6.02

Can you look up the measured mPTP Rat liver pIC50* of O=C(c1cccc(=O)[nH]1)N1CC(c2ccccc2)C2(CCC2)C1 (single isomer, unassigned) [Example 26a] for me?
4.88
